test system: BALB/c mice; assay: cutaneous hypersensitivity test (CH test), oxazolone-induced ear swelling; type: in vivo; details: Mus musculus, ip; intraperitoneal, at sensitisation and every 24 hours for a further 7 days; lowest dose used giving 20% or greater reduction in ear swelling (p <0.05) in two out of three CH tests; read-out: Minimum Effective Dose
Measurement kind: log10 of minimal effective dose (log10 of the value in mg/kg)
Scale type: logarithmic (base 10). Underlying minimal effective dose unit: mg/kg.

Below: 4 compounds and their reported log10 of minimal effective dose.
{"Given smiles": "Cc1oc2ccccc2c2nn(-c3ccc(F)c(Cl)c3)c(=O)c1-2", "log10 of minimal effective dose": -0.52}
{"Given smiles": "COc1cccc2oc(C)c3c(=O)n(-c4ccc(Cl)cc4)nc-3c12", "log10 of minimal effective dose": 1.70}
{"Given smiles": "Cc1oc2cc(F)ccc2c2nn(-c3ccc(Cl)cc3)c(=O)c1-2", "log10 of minimal effective dose": 1.70}
{"Given smiles": "Cc1oc2cccc(C)c2c2nn(-c3ccc(Cl)cc3)c(=O)c1-2", "log10 of minimal effective dose": 1.70}

Please go through the list and note log10 of minimal effective dose for each compound.
1. CCOC(=O)Cc1oc2ccccc2c2nn(-c3ccc(F)cc3)c(=O)c1-2
2. Cc1oc2ccc(O)cc2c2nn(-c3ccc(Cl)cc3)c(=O)c1-2
3. CCc1oc2ccccc2c2nn(-c3ccc(Cl)cc3)c(=O)c1-2

[A]
1: 0.48; 2: 1.70; 3: 1.70

Please go through the list and note log10 of minimal effective dose for each compound.
1. Cc1oc2ccccc2c2nn(-c3ccccc3)c(=O)c1-2
2. Cc1oc2ccccc2c2nn(-c3ccc(C(F)(F)F)cc3)c(=O)c1-2
3. Cc1oc2ccccc2c2nn(-c3ccc(Cl)c(Cl)c3)c(=O)c1-2
4. Cc1oc2ccc(Cl)cc2c2nn(-c3ccc(Cl)cc3)c(=O)c1-2
5. Cc1oc2cc(Cl)ccc2c2nn(-c3ccc(Cl)cc3)c(=O)c1-2
6. Cc1oc2ccccc2c2nn(-c3ccc(F)cc3)c(=O)c1-2
7. Cc1ccc(-n2nc3c4ccccc4oc(C)c-3c2=O)cc1

[A]
1. 1.70
2. 0.00
3. -0.52
4. 1.70
5. 1.70
6. 0.00
7. 1.00

Please go through the list and note log10 of minimal effective dose for each compound.
1. Cc1ccc(-n2nc3c4ccccc4oc(C)c-3c2=O)cc1Cl
2. COc1ccc(-n2nc3c4ccccc4oc(C)c-3c2=O)cc1
3. Cc1oc2ccc(F)cc2c2nn(-c3ccc(Cl)cc3)c(=O)c1-2

[A]
1: 0.48; 2: 1.70; 3: -1.00

Please go through the list and note log10 of minimal effective dose for each compound.
1. Cc1oc2ccccc2c2nn(-c3cccc(Cl)c3)c(=O)c1-2
2. Cc1oc2ccccc2c2nn(-c3ccc(Br)cc3)c(=O)c1-2
3. CCOC(=O)Cc1oc2ccccc2c2nn(-c3ccc(Cl)cc3)c(=O)c1-2
4. Cc1ccc2oc(C)c3c(=O)n(-c4ccc(Cl)cc4)nc-3c2c1

[A]
1. 0.48
2. 0.00
3. 0.48
4. 1.70
